Just for reference, ChEMBL document CHEMBL1201862 is where these values come from.

# key: entry, value: GI50
Test system: Malme-3M
assay.info: NCI tumour cell line growth inhibition, 48 h
Activity calls are given as the source filed them. Cut-off read from the data, not from the text of the source: active = GI50 up to about 1.1 µM and inactive = higher.

C=C(C)C(O)C(O)c1c(OC)ccc2ccc(=O)oc12 (stereo unspecified)	> 100 µM (inactive)
N=c1oc2ccccc2cc1C(=O)Nc1nccs1	35.6 µM (inactive)
CC(C)N1CC2CC(CN(C(=O)c3ccccc3)C2)C1.[O-][Cl+3]([O-])([O-])O	> 100 µM (inactive)
CC(=O)Nc1ccc(-c2nnc(SCC(=O)Nc3ccccc3[N+](=O)[O-])o2)cc1	> 100 µM (inactive)
CC(=O)N(CN1C(=O)CCC1C(=O)O)c1ccccc1 (stereo unspecified)	29.8 µM (inactive)

Per the records, this compound ( `O=C(CCc1ccccc1)NS(=O)(=O)c1ccccc1` ) has GI50 equal to > 100 µM (inactive)
